PBM binding z-score values by entry
System: VDR homodimer (NR concentration 270 nM)
Experiment: PBM binding z-score (relative to random genomic background probes); higher = stronger binding; sequences stand for … in GC…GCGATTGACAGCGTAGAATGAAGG
Keep it simple and answer with nothing but the number.

Consider the following illustrative entries.
| SEQUENCE CODE | PBM binding z-score |
| --- | --- |
| CGAACTAGGTCACCAGGACAGCGAAGAGGTTGGA | 0.423 |
| CCGAGTAGGTTACGAGGGGGCGTTCAGTGCGAAT | 2.88 |
| AGAACGAGGGCAATGAGTTCATAGCACGGGTGGC | 10.3 |

Looking for the measured PBM binding z-score of CCGAGTAGCTTACGAGGGGGCATTCAGTGCGAAT , can you help?
2.86

---

Test system: LXRa homodimer (NR concentration 270 nM)
Assay: PBM binding z-score (relative to random genomic background probes); higher = stronger binding; sequences stand for … in GC…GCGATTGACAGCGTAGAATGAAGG
Reported PBM binding z-score values are given for each entry in this list.

Solved cases below.
| SEQUENCE CODE | MEASUREMENT TARGET | PBM binding z-score |
| --- | --- | --- |
| ATATGTGGGTTATCGGGTCATTCAGTTTGCGCAT | LXRa homodimer (NR concentration 270 nM) | 1.74 |
| TCTGCTGGGTCAACGATGGTCAGCTAATCTGCTA | LXRa homodimer (NR concentration 270 nM) | -0.835 |
| TCGAGTAGGTTACGGGGGCATTAAGGGATGAAGA | LXRa homodimer (NR concentration 270 nM) | 0.404 |
| CCGACTTGGGCAAAGGTTACCATACTCAGTACGA | LXRa homodimer (NR concentration 270 nM) | 0.214 |
| TCGAGTAGGTTACGGGGGCCTTCAGGGATGAAGA | LXRa homodimer (NR concentration 270 nM) | 0.239 |

Would you kindly look at the next entry?
Item CGAACTAGATCACCAGGACAGTGAAGAGGTTGGA has what recorded PBM binding z-score?
-0.072

---

Measured PBM binding z-score, listed per entry.
Test system: LXRb:RXRa (NR concentration 270 nM, RXRa partner concentration 90 nM)
Assay: PBM binding z-score (relative to random genomic background probes); higher = stronger binding; sequences stand for … in GC…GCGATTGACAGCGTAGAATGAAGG
Output: the number by itself.

// known answers, use as guide
| SEQUENCE CODE | PBM binding z-score |
| --- | --- |
| TGGCCTAGGTCATGCGGGCCAGTATAGTGTCGGC | 1.2 |
| ATCGAAAGGTCGAAGGTCAGTATACCCACCCGAA | 4.53 |
| CGAACTAGGTCAACGGACAGTGAAAGGCGACGTA | 1.22 |
| CCTGCTAGGTCTATGGTCAGCTAAAGCAGCTCGC | -0.493 |
| CCTCGGAGGACAGAAGGTCAGATCTGTCCGCTTT | 1.25 |

Sample CCTAGCAGGCCAGGGTCACCCAAGCATTTCGCTT — what was its PBM binding z-score?
2.3

Data request, read-out PBM binding z-score, for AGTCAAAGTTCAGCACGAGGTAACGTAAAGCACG
2.23

For ATATGTAGGCTAGGGTCATTCAGAAAGTAGGGAA , what is its reported PBM binding z-score?
3.94

Consider the sequence shown here: GGAACTAGGGCAAAGTTGATAGCATCTGTCGACG What is its recorded PBM binding z-score?
0.16

I have this sequence here, ATCTCTAGGTAAATGTTCAGTGAATCCCGAGGAT , and I need its recorded PBM binding z-score.
-0.389

---

Test system: THRa homodimer (NR concentration 90 nM)
Experiment: PBM binding z-score (relative to random genomic background probes); higher = stronger binding; sequences stand for … in GC…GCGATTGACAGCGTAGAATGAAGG
Attribute: PBM binding z-score
Format: numeric value only, no unit, no commentary.

Look over these answered cases.
| SEQUENCE CODE | MEASUREMENT KIND | REPORTED VALUE |
| --- | --- | --- |
| TCGAGTGGGTTACGGGGGCATTCAGGGATGAAGA | PBM binding z-score | 2.2 |
| ATCTCTAGGTAACAAGGTCAGTGAAAGAGAGGAC | PBM binding z-score | 2.37 |
| CGAACTAGGTCAAAGGACAGTGCAAGGCGACGTA | PBM binding z-score | 0.81 |

What value of PBM binding z-score has been reported for the following sequence? CGAACTAGGACACCAGGACAGTGAAGAGGTTGGA
1.24

Look up PBM binding z-score for this sequence: TAGCCTAGGTCAAGCGGGCCAGTATAGTGTCGGC
0.702

What value of PBM binding z-score has been reported for the following sequence? CGAACCAGGTCACCAGGACAGTGAAGAGGTTGGA
2.77

---

Test system: LXRb:RXRa (NR concentration 270 nM, RXRa partner concentration 90 nM)
Test: PBM binding z-score (relative to random genomic background probes); higher = stronger binding; sequences stand for … in GC…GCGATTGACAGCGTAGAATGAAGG
Just so you know, the groups by PBM binding z-score go like this: low: < 2; mid: ≥ 2 and < 4; high: ≥ 4

| SEQUENCE CODE | QUALITATIVE LABEL |
| --- | --- |
| ATCGAAAGGTCGAAGGTGAGTACACCCACCCGAA | mid |
| CGAACTAGGTCTCCAGGACAGTGAAGAGGTTGGA | low |
| CGAACTAGGTTAAAGGACAGTGAAAGGCGACGTA | low |

Please let me know in which category the item CCGGGTAGGTTACGAGGGGGCATTCAGTGCGAAT belongs.
high

Please let me know in which category the item CGAACTAGGTCAAAGGACAGTCAAAGGCGACGTA belongs.
low

Class for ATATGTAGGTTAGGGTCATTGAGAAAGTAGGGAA ?
high

Which class is correct for the following sequence? ACTAGAAGGCCAAGGGTCACTCAAGATTAGTCCG
mid

Classify this sequence: CGAACTAGGTCACAAGGACAGTGAAGAGGTTGGA
low

Class label required: TCTAGCTGGTCAAAGGTCACACACTCGAAATGCG
high

Looking at CGAACTAGGTCACCAGAACAGTGAAGAGGTTGGA , which class would you pick?
low

In plain terms, what class is CGTACTAGGTCAAAGGACAGTGAAAGGCGACGTA ?
low

Category of CGAACTAGGTCACCAGGACAGTGAAGAGGTTGGA , please.
low

Please let me know in which category the item CCTCGGAGGACAACAGGAGGTCAAAGCTGCCAGA belongs.
mid

Lab note: sort TATCCTAGGTCAGATCGGGCCAGTATACGCTATA into the matching PBM binding z-score band.
mid

Hi, small favor: classify CAATCTAGGTCACAGAGGTCAAAGTCCGTGCGTA by its PBM binding z-score when you get a moment.
high

Which class is correct for the following sequence? CCGACTGGGGCAAAGGTTACCACACTCAGTACGA
mid

State the band of CGTCAAAGTTCACCTAAGGTAACGTAAAGCACGC
high

Hello team, could you let me know which band the following sequence falls into: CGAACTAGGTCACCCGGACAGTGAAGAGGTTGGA
low

Categorize the following entry: CAAACTAGGTCACGAAAGGTCAAATTCGAATGAC
high

Bin this entry: CTATGTAGGTTAAGAGGGTCATTCAGTTTGAAAG
mid

Category lookup for the sequence ATCAAAAGGTCGAAGGTGAGTATACCCACCCGAA
mid

Hey, which category is ATATGTAGGTTAGGGTCGTTCAGAAAGTAGGGAA in, do you know?
mid

# classify by PBM binding z-score band: CGAACTAGGTCAAAAGACAGTGAAAGGCGACGTA
low

Entry CCGAGTAGGTTACGAGGGGGCAGTCAGTGCGAAT belongs to which category?
high

Input CGTCCAAGGTCAGAGAGGTCATTGAATGCCGAGT ; output its category
high

---

Test system: PPARg:RXRa IVT, anti-PPARg (NR concentration 270 nM, RXRa partner concentration 90 nM)
Experiment: PBM binding z-score (relative to random genomic background probes); higher = stronger binding; sequences stand for … in GC…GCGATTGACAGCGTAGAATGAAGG
MEASUREMENT KIND: PBM binding z-score

Please review the following examples before continuing.
| SEQUENCE CODE | MEASUREMENT KIND | REPORTED VALUE |
| --- | --- | --- |
| CGAACTAGGTTACCAGGACAGTGAAGAGGTTGGA | PBM binding z-score | 6.73 |
| GCTAGTTTGTCAGTAAAAGGTCACACACCGGTCG | PBM binding z-score | 2.75 |
| CCGAGTAGGTTACGAGGGGGGATTCAGTGCGAAT | PBM binding z-score | 4.91 |
| CCGAGTAGGTTACGAGGGGGCATTTAGTGCGAAT | PBM binding z-score | 4.43 |
| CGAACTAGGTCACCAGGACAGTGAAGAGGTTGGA | PBM binding z-score | 8.79 |

For ATATGTAGATTAGGGTCATTCAGAAAGTAGGGAA , what is its reported PBM binding z-score?
2.96

// PBM binding z-score lookup, key: CCGAGTAGGTCACGAGGGGGCATTCAGTGCGAAT
7.42

Data request, read-out PBM binding z-score, for GATACAGGGTCATCTAGAGGCCAGAGTATGGAAA
3.6

Which measured PBM binding z-score value corresponds to CGAACTAGGTCACCAGGACAGTGTAGAGGTTGGA ?
8.73

Requested field: PBM binding z-score. Item: TCTAGTAGGTTACGGGGGCATTCAGGGATGAAGA
7

# query: PBM binding z-score of entry CTCGAAAGGTCGTGCTCAGGTGAGTACACCAAAC
2.09

PBM binding z-score lookup needed for CCGAGTAGGTTACGAGGGGGCATTCAGTGCGAAT , thanks.
4.49
